These data points were gathered from PubChem BioAssay (NCI).

Recorded growth, one value per entry.
- Test system: TK-10 renal
- Test description: NCI-60 one-dose screen, 48 h (100 = growth as untreated, 0 = no growth, -100 = all killed)
- Condition set: 10 µM unless noted
About 83,000 compounds went through this panel and 20% of them were active in at least one assay; those are over-represented in the sample as a whole.

>  <Smi>
Cn1cccc1/C=C1/SC(=S)N(CCc2ccc(O)cc2)C1=O

>  <growth [%]>
110

$$$$
>  <Smi>
COc1ccc(/C=C/C(=O)NCCO)cc1

>  <growth [%]>
92

$$$$
>  <Smi>
CC(C)=CCC[C@](C)(O)[C@H]1CC[C@]2(C)[C@@H]1CC[C@@H]1[C@@]3(C)C/C(=C/c4ccc(Br)cc4)C(=O)C(C)(C)[C@@H]3CC[C@]12C

>  <growth [%]>
130

$$$$
>  <Smi>
Cn1cc(-c2csc(-c3cn(CCN)c4ccc(F)cc34)n2)c2cccnc21

>  <growth [%]>
121

$$$$
>  <Smi>
COc1cccc(-c2nn(-c3ccccc3)cc2-c2ccnc(NCCCO)c2)c1

>  <growth [%]>
63.1

$$$$
>  <Smi>
COc1ccccc1CNc1nc(N)nc2[nH]c3ccc(O)cc3c12

>  <growth [%]>
68.6

$$$$
>  <Smi>
COc1ccc2c(c1)C/C(=C\c1cc(-c3cc(OC)c(OC)c(OC)c3)n[nH]1)C2=O

>  <growth [%]>
111

$$$$
>  <Smi>
C=C(C)[C@@H]1CC[C@]2(C=O)CC[C@]3(C)[C@H](CC[C@@H]4[C@@]5(C)C/C(=C/c6cccnc6)C(=O)C(C)(C)[C@@H]5CC[C@]43C)[C@@H]12

>  <growth [%]>
134

$$$$
>  <Smi>
Cc1cc(Cl)nc(N(CCNc2ccnc3cc(Cl)ccc23)Cc2ccco2)n1

>  <growth [%]>
64

$$$$
